- measured.target: recombinantly expressed His-tagged protein corresponding to amino acids 575-869 of human Tyk2 (Homo sapiens)
- Construct: corresponding to amino acids 575-869 of human Tyk2
- Sequence (P29597 575-869): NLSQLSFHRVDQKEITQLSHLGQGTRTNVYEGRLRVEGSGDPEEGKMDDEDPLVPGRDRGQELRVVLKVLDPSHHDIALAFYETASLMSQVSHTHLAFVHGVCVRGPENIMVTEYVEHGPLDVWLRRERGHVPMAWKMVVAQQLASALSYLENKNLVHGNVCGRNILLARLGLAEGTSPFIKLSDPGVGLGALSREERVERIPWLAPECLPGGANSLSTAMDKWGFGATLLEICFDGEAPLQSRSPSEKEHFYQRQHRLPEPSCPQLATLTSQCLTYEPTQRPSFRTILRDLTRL
- measurement.protocol: Probe displacement assay (scintillation proximity, [3H] probe)
- conditions: 2.5 nM Tyk2 (575-869), 40 nM radiolabeled probe, 30 minutes at room temperature
Mark class 1 only for EC50 values smaller than 30 nM; exact matches and larger values are class 0.

>>> df
                                    compound  group_label
 0  CNC(=O)c1cnc(Nc2cc(C)c(F)cn2)cc1Nc1cccc(-c2nc[nH]n2)c1OC(F)F      class 1
 1  CCn1ncnc1-c1cccc(Nc2cc(Nc3cc(C)nc(C)n3)ncc2C(=O)NC)c1OC      class 1
 2  CNC(=O)c1cnc(Nc2ccc(N3CCOCC3)cn2)cc1Nc1ccccc1CCO      class 0
 3  CNC(=O)c1cnc(Nc2ccc3ccccc3n2)cc1N[C@@H]1CCCC[C@@H]1C(N)=O      class 0
 4  CCc1cc(Nc2cc(Nc3ccccc3S(C)(=O)=O)c(C(=O)NC)cn2)ncn1      class 1
 5  CNC(=O)c1cnc(Nc2cccc(OC)n2)cc1Nc1ccccc1C(N)=O      class 1
 6  CNC(=O)c1cnc(Nc2cc(C)c(F)cn2)cc1Nc1cccc(C(=O)NCC2CCCCC2)c1OC      class 0
 7  CNC(=O)c1cnc(Nc2ccc(N3CCOCC3)cn2)cc1Nc1ccccc1OC(F)F      class 0
 8  CNC(=O)c1cnc(Nc2ccc(F)cn2)cc1Nc1ccccc1[S+](C)[O-] (stereo not drawn)      class 0
 9  CNC(=O)c1cnc(Nc2ccc(N3CCCC3=O)cn2)cc1Nc1ccc(Cl)cc1OC      class 0
10  CNC(=O)c1cnc(Nc2cncc(C)n2)cc1Nc1ccccc1S(C)(=O)=O      class 1
